These entries and their values trace back to ChEMBL document CHEMBL1201861.

Tested on: Calu-6;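 also: growth of human Calu-6 cells, read out by a cell viability assay, IC50 marking inhibition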
procedure.details: cells
Type: functional, cell-based, Homo sapiens
run.conditions: Homo sapiens, Calu-6
Description: SANGER: Inhibition of human Calu-6 cell growth in a cell viability assay.
Give IC50 for every item shown.
Numbers only, in nM.

{"entry.smiles": "CC(C)c1ccccc1Cc1cc(C(=O)Nc2ccc(S(=O)(=O)c3ccccc3C(C)(C)C)cc2)c(O)c(O)c1O", "measure.name": "IC50", "reported": 887}

Request the reported IC50 associated with `Cc1cc([N+](=O)[O-])ccc1NS(=O)(=O)c1cc(Cl)ccc1Cl`
831

---

Tested on: G-401
procedure.details: cells
Format: functional, cell-based, Homo sapiens
run.conditions: Homo sapiens, G-401
Description: SANGER: Inhibition of human G-401 cell growth in a cell viability assay.
pIC50: −log10 of the molar value.
measure.name: pIC50

# count of solved cases: 3
{"compound": "COc1cc2c(Nc3ccc(NC(=O)c4ccccc4)cc3)ncnc2cc1OCCCN1CCOCC1", "pIC50": "< 5.40"}
{"compound": "CO[C@H]1C[C@@H]2CC[C@@H](C)[C@@](O)(O2)C(=O)C(=O)N2CCCC[C@H]2C(=O)O[C@H]([C@H](C)C[C@@H]2CC[C@@H](OC(=O)C(C)(CO)CO)[C@H](OC)C2)CC(=O)[C@H](C)/C=C(\\C)[C@@H](O)[C@@H](OC)C(=O)[C@H](C)C[C@H](C)/C=C/C=C/C=C/1C", "pIC50": 7.05}
{"compound": "CCC/C=C/C=C/C(=O)O[C@H]1/C(=C/C(=O)OC)C[C@H]2C[C@H]([C@@H](C)O)OC(=O)C[C@H](O)C[C@@H]3C[C@H](OC(C)=O)C(C)(C)[C@](O)(C[C@@H]4C/C(=C/C(=O)OC)C[C@H](/C=C/C(C)(C)[C@]1(O)O2)O4)O3", "pIC50": "< 8.10"}

I would be grateful if you could provide pIC50 for each of the following entries.
1. CC(C)CCN1c2nc(Nc3cc(F)c(O)c(F)c3)ncc2N(C)C(=O)C1C (stereo unspecified)
2. Oc1ccc2ccccc2c1SSc1c(O)ccc2ccccc12
3. CS(=O)(=O)c1ccc(C(=O)Nc2ccc(Cl)c(-c3ccccn3)c2)c(Cl)c1

1. < 5.30
2. 5.12
3. < 5.00

---

Tested on: CCRF-CEM;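 also: inhibition of CCRF-CEM cell growth, measured by a cell viability assay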
procedure.details: cells
Assay type: functional, cell-based, Homo sapiens
run.conditions: Homo sapiens, CCRF-CEM
Description: SANGER: Inhibition of human CCRF-CEM cell growth in a cell viability assay.
Record form. Attribute: pIC50. Fill in for each entry.
Answers are plain numbers, as −log10 of the molar value.

# count of solved cases: 3
{"entry.smiles": "COc1cc2c(Nc3ccc(NC(=O)c4ccccc4)cc3)ncnc2cc1OCCCN1CCOCC1", "pIC50": 5.73}
{"entry.smiles": "Oc1ccc2ccccc2c1SSc1c(O)ccc2ccccc12", "pIC50": 5.22}
{"entry.smiles": "Cc1cc([N+](=O)[O-])ccc1NS(=O)(=O)c1cc(Cl)ccc1Cl", "pIC50": 5.10}

In the following, a different compound is considered.
Query pIC50 on CCRF-CEM for `COc1cccc2c1C(=O)c1c(O)c3c(c(O)c1C2=O)C[C@@](O)(C(=O)CO)C[C@@H]3O[C@H]1C[C@H](N)[C@H](O)[C@H](C)O1`
7.61

---

Test system: HMV-2 cell line;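 also: growth inhibition of HMV-II cells, read out with a cell viability assay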
procedure.details: cells
Type: functional, cell-based, Homo sapiens
run.conditions: Homo sapiens, HMV-2
Description: SANGER: Inhibition of human HMV-II cell growth in a cell viability assay.
measure.name: IC50 (nM)
Give bare numbers, in nM.

{"entry.smiles": "Nc1ccn([C@@H]2O[C@H](CO)[C@@H](O)C2(F)F)c(=O)n1", "result.unit": "nM", "reported": 24.3}

Hi, could you look up IC50 for each item in my list?
1. Cc1cc([N+](=O)[O-])ccc1NS(=O)(=O)c1cc(Cl)ccc1Cl
2. O=C(O)c1ccc(-c2c[nH]c3ncc(-c4ccccc4)cc23)cc1C1CCCC1

1: 1540; 2: 7510
